Target: NA (H5N1) (Influenza A virus, UniProt K0C216)
Assay: biochemical
Settings: read-out: Inhibition rate (%) NA (H5N1)
Hi there, I'd appreciate the recorded inhibition at 200 µM for every entry that follows.
Write the value in % as a bare number.

Dear colleague, please send me the reported inhibition at 200 µM for C/C(=C\[C@@H](O)C[C@@H](C)[C@H]1CC(=O)[C@@]2(C)C3=C(C(=O)C[C@]12C)[C@@]1(C)CCC(=O)C(C)(C)[C@@H]1C[C@@H]3O)C(=O)O when you can.
67.1

Dear colleague, please send me the reported inhibition at 200 µM for CC(=O)O[C@@H]1C(=O)C2=C(C(=O)C[C@H]3C(C)(C)[C@@H](O)CC[C@]23C)[C@]2(C)C(=O)C[C@H]([C@H](C)CC(=O)CC(C)C(=O)O)[C@@]12C (stereo partly shown) when you can.
64.1

Dear colleague, please send me the reported inhibition at 200 µM for C[C@H](CC(=O)C[C@@H](C)[C@H]1C[C@H](O)[C@@]2(C)C3=C(C(=O)C[C@]12C)[C@@]1(C)CC[C@H](O)C(C)(C)[C@@H]1C[C@@H]3O)C(=O)O when you can.
60.8

Dear colleague, please send me the reported inhibition at 200 µM for CC(CC(=O)C[C@@H](C)[C@H]1CC(=O)[C@@]2(C)C3=C(C(=O)[C@@H](O)[C@]12C)[C@@]1(C)CC[C@H](O)C(C)(C)[C@@H]1CC3=O)C(=O)O (stereo partly shown) when you can.
15.6

The measured values listed here are drawn from paper PMC4549708.
